# METHOD_NOTES: self-splicing fitness, log relative to wild type (ln ratio); higher = more splicing; Tetrahymena group I intron in knt gene, E. coli kanamycin selection, DiMSum; sequences stand for … in CUCUCU…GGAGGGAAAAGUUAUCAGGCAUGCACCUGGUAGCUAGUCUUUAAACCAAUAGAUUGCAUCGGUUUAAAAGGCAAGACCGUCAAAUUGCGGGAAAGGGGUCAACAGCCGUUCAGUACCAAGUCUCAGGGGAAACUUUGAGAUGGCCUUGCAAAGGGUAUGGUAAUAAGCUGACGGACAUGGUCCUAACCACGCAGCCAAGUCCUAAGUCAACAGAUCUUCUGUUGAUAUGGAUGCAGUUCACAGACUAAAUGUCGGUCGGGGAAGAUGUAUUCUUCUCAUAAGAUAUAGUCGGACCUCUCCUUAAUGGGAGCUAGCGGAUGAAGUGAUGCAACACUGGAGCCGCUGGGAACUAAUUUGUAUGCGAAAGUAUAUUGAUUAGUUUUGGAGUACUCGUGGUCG;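 further: selection with 25 µg/mL kanamycin versus none on LB agar overnight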
# MEASUREMENT_CONTEXT: 37 °C
Please note: condition met applies when self-splicing fitness (ln) is -1 or greater, and condition not met applies otherwise.

{"RESIDUE_CODES": "UCCAAGCAAUAUUACGUCAA", "ASSIGNED_CLASS": "condition met"}
{"RESIDUE_CODES": "AUCAAGCAAUAUUACGCAUA", "ASSIGNED_CLASS": "condition met"}
{"RESIDUE_CODES": "GUUCAGCAAUAUUACGCUUA", "ASSIGNED_CLASS": "condition met"}

State whether the measured self-splicing fitness (ln) reaches -1, counting equality as reaching it, for CGUAAGCAAUAUUACGCAUA condition not met

State whether the measured self-splicing fitness (ln) reaches -1, counting equality as reaching it, for AUUUAGCAAUAUUACGAAUG condition met

State whether the measured self-splicing fitness (ln) reaches -1, counting equality as reaching it, for UACAAGCAAUAUUACGAAUG condition met

State whether the measured self-splicing fitness (ln) reaches -1, counting equality as reaching it, for AGCGAGCAAUAUUACGUGCU condition not met

State whether the measured self-splicing fitness (ln) reaches -1, counting equality as reaching it, for CGCGAGCAAUAUUACGAUCA condition not met

State whether the measured self-splicing fitness (ln) reaches -1, counting equality as reaching it, for UGCUAGCAAUAUUACGACGU condition not met

State whether the measured self-splicing fitness (ln) reaches -1, counting equality as reaching it, for CCUGAGCAAUAUUACGUCGC condition not met

State whether the measured self-splicing fitness (ln) reaches -1, counting equality as reaching it, for AACGAGCAAUAUUACGAUUU condition met

====

# METHOD_NOTES: self-splicing fitness, log relative to wild type (ln ratio); higher = more splicing; Tetrahymena group I intron in knt gene, E. coli kanamycin selection, DiMSum; sequences stand for … in CUCUCU…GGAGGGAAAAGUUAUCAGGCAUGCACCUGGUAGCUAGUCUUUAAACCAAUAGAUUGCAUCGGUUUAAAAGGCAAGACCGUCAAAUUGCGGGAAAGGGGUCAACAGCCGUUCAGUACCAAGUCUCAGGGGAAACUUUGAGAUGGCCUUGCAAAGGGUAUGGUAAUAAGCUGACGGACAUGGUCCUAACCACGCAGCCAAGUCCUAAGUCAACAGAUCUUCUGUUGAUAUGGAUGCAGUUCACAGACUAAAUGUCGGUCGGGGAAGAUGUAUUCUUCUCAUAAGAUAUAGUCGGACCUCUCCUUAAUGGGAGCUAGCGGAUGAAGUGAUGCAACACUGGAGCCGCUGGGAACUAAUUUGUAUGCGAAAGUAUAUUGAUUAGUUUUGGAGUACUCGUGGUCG
# MEASUREMENT_CONTEXT: 37 °C
Please note: 1 (yes) applies when self-splicing fitness (ln) is -1 or greater, and 0 (no) applies otherwise.

# count of solved cases: 10
{"RESIDUE_CODES": "GAUCAGCAAUAUUACGACCG", "ASSIGNED_CLASS": "1 (yes)"}
{"RESIDUE_CODES": "GCACAGCAAUAUUACGGACU", "ASSIGNED_CLASS": "1 (yes)"}
{"RESIDUE_CODES": "GCUAAGCAAUAUUACGUAGA", "ASSIGNED_CLASS": "1 (yes)"}
{"RESIDUE_CODES": "AACUAGCAAUAUUACGGCCG", "ASSIGNED_CLASS": "1 (yes)"}
{"RESIDUE_CODES": "UUUGAGCAAUAUUACGUAGG", "ASSIGNED_CLASS": "0 (no)"}
{"RESIDUE_CODES": "AUGCAGCAAUAUUACGAUGC", "ASSIGNED_CLASS": "1 (yes)"}
{"RESIDUE_CODES": "AAGUAGCAAUAUUACGCUUC", "ASSIGNED_CLASS": "0 (no)"}
{"RESIDUE_CODES": "AAUUAGCAAUAUUACGAACU", "ASSIGNED_CLASS": "1 (yes)"}
{"RESIDUE_CODES": "AUUAAGCAAUAUUACGUCCU", "ASSIGNED_CLASS": "1 (yes)"}
{"RESIDUE_CODES": "GCCUAGCAAUAUUACGUGCC", "ASSIGNED_CLASS": "0 (no)"}

State whether the measured self-splicing fitness (ln) reaches -1, counting equality as reaching it, for UCUGAGCAAUAUUACGACCU 0 (no)

State whether the measured self-splicing fitness (ln) reaches -1, counting equality as reaching it, for CGAAAGCAAUAUUACGCAAC 0 (no)

State whether the measured self-splicing fitness (ln) reaches -1, counting equality as reaching it, for GGAAAGCAAUAUUACGGGGG 0 (no)

State whether the measured self-splicing fitness (ln) reaches -1, counting equality as reaching it, for UCCUAGCAAUAUUACGUUCG 0 (no)

State whether the measured self-splicing fitness (ln) reaches -1, counting equality as reaching it, for GUGAAGCAAUAUUACGCACA 1 (yes)

State whether the measured self-splicing fitness (ln) reaches -1, counting equality as reaching it, for UUGAAGCAAUAUUACGGCUC 0 (no)
